method.summary: Inhibition of Mycobacterium tuberculosis antigen 85C mycolyltransferase activity incubated for 30 mins by scintillation counting method in presence of [14C]-trehalose
value.kind: IC50 (µM)
Only the number, expressed in µM, is required.

Value of IC50 reported for the compound CCCCCCCCS(=O)(=O)OCCN1C(=O)c2ccccc2C1=O is 4.3

---

method.summary: Competitive inhibition of recombinant Mycobacterium smegmatis trehalose synthase using DNPGlc as substrate by Dixon plot analysis
Set-up: species or system Mycolicibacterium smegmatis
Below: a set of entries, each annotated with reported pKi.
pKi is defined as minus the log10 of a concentration measured in mol/L.

Value of pKi reported for the molecule O=C(Nc1ccccc1)O/N=C1\N[C@H](CO)[C@@H](O)[C@H](O)[C@H]1O is 5.68

Value of pKi reported for the molecule OC[C@@H]1[C@@H](O)[C@H](O)C2[C@H](O)[C@@H](O)CN21 (stereo partly drawn) is 5.60

Value of pKi reported for the molecule OC[C@H]1NC[C@H](O)[C@@H](O)[C@@H]1O [DUVOGLUSTAT] is 6.60
